Test system: A2780
Experiment: In vitro cytotoxicity causing 50% growth inhibition was determined against […] (human ovarian cancer)cell line
Assay type: functional, cell-based
pIC50: −log10 of the molar value.
Measured pIC50 accompanies every entry in the list below.
measurementKind: pIC50

CCCCCCCCCCCCCCC(CCOS(C)(=O)=O)COS(C)(=O)=O (stereo not drawn) = 4.59
CCCCCCCCCCCCCCC(COS(C)(=O)=O)OS(C)(=O)=O (stereo not drawn) = 4.34

* * *

Test system: WiDr
Experiment: In vitro cytotoxicity causing 50% growth inhibition was determined against WiDr (human colon carcinoma) cell line
Type: functional, cell-based
Measured IC50 accompanies every entry in the list below.
measurementKind: IC50 (µM)

CCCCCCCCCCCCCCC(CCOS(C)(=O)=O)COS(C)(=O)=O (stereo not drawn) = 24.9
CCCCCCCCCCCCCCC(COS(C)(=O)=O)OS(C)(=O)=O (stereo not drawn) = 25.6
